# targetOrSystem: Arabidopsis thaliana DHS2 (AtDHS2), wild type (DHS2^WT), SEQ ID NO:2 (Arabidopsis thaliana, UniProt Q00218)
# Construct: without the predicted plastid transit peptide (amino acid residues; 49-525, 34-507, and 52-527, respectively); made in house; host or cells: E. coli Rosetta-2
# test: DHS enzyme assay with effector, Arabidopsis DHS2 WT
# Format: biochemical
# conditionNotes: 4 mM E4P, 4 mM PEP, pH 7.4, 37° C.
pIC50: −log10 of the molar value.
endpointName: pIC50

>>> reported("O=C(O)C(=O)Cc1ccc(O)cc1 [HPP, 4-Hydroxyphenylpyruvate]")
4.32

###

# targetOrSystem: DHS2^WT (Arabidopsis thaliana, UniProt Q00218)
# Construct: without the predicted plastid transit peptide (amino acid residues; 49-525, 34-507, and 52-527, respectively)
# Sequence (Q00218 34-507): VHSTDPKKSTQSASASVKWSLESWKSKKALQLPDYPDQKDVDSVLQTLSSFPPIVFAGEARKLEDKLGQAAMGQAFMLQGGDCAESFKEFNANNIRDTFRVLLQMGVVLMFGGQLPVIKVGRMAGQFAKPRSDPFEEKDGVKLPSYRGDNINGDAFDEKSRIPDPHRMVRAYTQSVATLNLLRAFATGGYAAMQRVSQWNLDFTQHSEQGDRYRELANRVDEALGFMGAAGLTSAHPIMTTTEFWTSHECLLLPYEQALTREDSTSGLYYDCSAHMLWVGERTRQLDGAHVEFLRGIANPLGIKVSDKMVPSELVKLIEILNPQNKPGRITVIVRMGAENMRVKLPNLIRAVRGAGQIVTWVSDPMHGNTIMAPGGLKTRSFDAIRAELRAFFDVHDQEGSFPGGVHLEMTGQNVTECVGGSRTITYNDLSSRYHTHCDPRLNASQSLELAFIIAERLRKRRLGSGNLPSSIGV
# test: DHS enzyme assay, recombinant DHS2^WT
# conditionNotes: recombinant enzyme; read-out: IC50 of effector molecule on DHS2^WT
pIC50: −log10 of the molar value.
endpointName: pIC50

>>> reported("O=C(O)Cc1cc(O)ccc1O [HGA, homogentisate]")
4.13

###

Collected pIC50 values appear next to each entry.
# targetOrSystem: Arabidopsis thaliana DHS2 (SEQ ID NO:2) variant DHS2^F1 (sotaF1), L136F (Arabidopsis thaliana, UniProt Q00218, L136F)
# Construct: without the predicted plastid transit peptide (amino acid residues; 49-525, 34-507, and 52-527, respectively)
# Sequence (Q00218 34-507 L136F): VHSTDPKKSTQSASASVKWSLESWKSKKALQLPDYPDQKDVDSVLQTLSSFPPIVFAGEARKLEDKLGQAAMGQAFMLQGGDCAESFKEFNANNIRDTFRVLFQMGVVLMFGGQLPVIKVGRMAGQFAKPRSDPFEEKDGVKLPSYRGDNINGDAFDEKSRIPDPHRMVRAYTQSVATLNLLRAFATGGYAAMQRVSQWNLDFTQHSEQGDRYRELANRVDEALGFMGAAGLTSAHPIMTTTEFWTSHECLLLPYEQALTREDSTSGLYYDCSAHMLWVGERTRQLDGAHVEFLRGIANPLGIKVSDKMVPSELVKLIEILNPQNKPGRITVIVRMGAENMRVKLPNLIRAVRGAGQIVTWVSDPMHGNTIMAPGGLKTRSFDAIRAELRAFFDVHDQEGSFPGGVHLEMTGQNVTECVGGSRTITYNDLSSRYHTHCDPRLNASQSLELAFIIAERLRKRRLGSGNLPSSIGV
# test: DHS enzyme assay with effector, DHS2 sotaF1
pIC50: −log10 of the molar value.
endpointName: pIC50

>>> reported("O=C(O)C(=O)Cc1c[nH]c2ccccc12 [IPA, indole-3-pyruvate]")
4.13
>>> reported("O=C(O)C(=O)Cc1ccc(O)cc1 [HPP, 4-Hydroxyphenylpyruvate]")
3.49
>>> reported("O=C(O)Cc1cc(O)ccc1O [HGA, homogentisate]")
3.10

###

# targetOrSystem: DHS2^F1 (Arabidopsis thaliana, UniProt Q00218, L136F)
# Construct: without the predicted plastid transit peptide (amino acid residues; 49-525, 34-507, and 52-527, respectively)
# Sequence (Q00218 34-507 L136F): as the sequence (Q00218 34-507 L136F) above
# test: DHS enzyme assay, recombinant DHS2^F1
# conditionNotes: recombinant enzyme; read-out: IC50 of effector molecule on DHS2^F1
pIC50: −log10 of the molar value.
Collected pIC50 values appear next to each entry.
endpointName: pIC50

>>> reported("O=C(O)C(=O)Cc1c[nH]c2ccccc12 [IPA, indole-3-pyruvate]")
4.13
>>> reported("O=C(O)C(=O)Cc1ccc(O)cc1 [HPP, 4-Hydroxyphenylpyruvate]")
3.49
>>> reported("O=C(O)Cc1cc(O)ccc1O [HGA, homogentisate]")
3.10

###

# targetOrSystem: Arabidopsis thaliana DHS3 (AtDHS3), wild type (DHS3^WT), SEQ ID NO:3 (Arabidopsis thaliana, UniProt Q9SK84)
# Sequence (Q9SK84 entry or part of it): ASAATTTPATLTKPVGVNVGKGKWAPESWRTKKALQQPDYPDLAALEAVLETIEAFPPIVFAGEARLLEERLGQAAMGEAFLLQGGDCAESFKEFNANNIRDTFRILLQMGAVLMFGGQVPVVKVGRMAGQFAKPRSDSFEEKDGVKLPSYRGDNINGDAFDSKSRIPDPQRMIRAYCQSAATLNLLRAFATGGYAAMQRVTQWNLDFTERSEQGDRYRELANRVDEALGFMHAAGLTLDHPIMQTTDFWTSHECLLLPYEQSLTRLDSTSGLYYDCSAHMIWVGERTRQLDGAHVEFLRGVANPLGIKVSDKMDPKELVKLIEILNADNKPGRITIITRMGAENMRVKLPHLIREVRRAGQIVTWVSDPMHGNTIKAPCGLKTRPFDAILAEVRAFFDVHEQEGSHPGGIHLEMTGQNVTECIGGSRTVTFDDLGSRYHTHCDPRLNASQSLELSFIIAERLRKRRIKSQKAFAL
# test: DHS enzyme assay with effector, Arabidopsis DHS3 WT
# Type: biochemical
endpointName: IC50 (µM)

>>> reported("O=C(O)Cc1cc(O)ccc1O [HGA, homogentisate]")
102

###

# targetOrSystem: DHS3^H1
# test: DHS enzyme assay, recombinant DHS3^H1
# conditionNotes: read-out: IC50 of effector molecule on DHS3^H1
pIC50: −log10 of the molar value.
endpointName: pIC50

>>> reported("O=C(O)Cc1cc(O)ccc1O [HGA, homogentisate]")
3.39

###

# targetOrSystem: Arabidopsis thaliana DHS3 (SEQ ID NO:3) variant DHS3^G1 (sotaG1), A240T (Arabidopsis thaliana, UniProt Q9SK84, A240T)
# Sequence (Q9SK84 entry or part of it A240T): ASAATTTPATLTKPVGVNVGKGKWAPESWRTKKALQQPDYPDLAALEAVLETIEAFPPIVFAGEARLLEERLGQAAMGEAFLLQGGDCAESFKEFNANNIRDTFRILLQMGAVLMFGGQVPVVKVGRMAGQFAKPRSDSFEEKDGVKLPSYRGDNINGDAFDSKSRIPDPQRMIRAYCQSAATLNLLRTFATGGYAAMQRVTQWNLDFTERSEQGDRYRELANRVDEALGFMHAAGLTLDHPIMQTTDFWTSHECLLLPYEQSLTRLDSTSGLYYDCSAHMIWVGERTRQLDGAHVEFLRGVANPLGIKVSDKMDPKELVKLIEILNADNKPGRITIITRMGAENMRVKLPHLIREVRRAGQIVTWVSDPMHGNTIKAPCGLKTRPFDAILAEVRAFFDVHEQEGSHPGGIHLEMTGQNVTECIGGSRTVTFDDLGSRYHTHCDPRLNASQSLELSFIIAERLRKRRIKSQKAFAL
# test: DHS enzyme assay with effector, DHS3 sotaG1
# Experimental: To generate recombinant DHS proteins the pET28a vectors carrying the A. thaliana DHS1 (AtDHS1), AtDHS2, or AtDHS3 WT sequence without the predicted plastid transit peptide (amino acid residues; 49-525, 34-507, and 52-527, respectively) were expressed in E. coli Rosetta-2 cells and purified using Ni-affinity chromatography, exactly as was conducted previously (9). […]
pIC50: −log10 of the molar value.
Collected pIC50 values appear next to each entry.
endpointName: pIC50

>>> reported("O=C(O)C(=O)Cc1c[nH]c2ccccc12 [IPA, indole-3-pyruvate]")
3.56
>>> reported("O=C(O)Cc1cc(O)ccc1O [HGA, homogentisate]")
3.43
>>> reported("O=C(O)C(=O)Cc1ccc(O)cc1 [HPP, 4-Hydroxyphenylpyruvate]")
3.04

###

# targetOrSystem: Arabidopsis thaliana DHS2 (SEQ ID NO:2) variant DHS2^A4 (sotaA4), G222S (Arabidopsis thaliana, UniProt Q00218, G222S)
# Construct: without the predicted plastid transit peptide (amino acid residues; 49-525, 34-507, and 52-527, respectively); made in house; host or cells: E. coli
# Sequence (Q00218 34-507 G222S): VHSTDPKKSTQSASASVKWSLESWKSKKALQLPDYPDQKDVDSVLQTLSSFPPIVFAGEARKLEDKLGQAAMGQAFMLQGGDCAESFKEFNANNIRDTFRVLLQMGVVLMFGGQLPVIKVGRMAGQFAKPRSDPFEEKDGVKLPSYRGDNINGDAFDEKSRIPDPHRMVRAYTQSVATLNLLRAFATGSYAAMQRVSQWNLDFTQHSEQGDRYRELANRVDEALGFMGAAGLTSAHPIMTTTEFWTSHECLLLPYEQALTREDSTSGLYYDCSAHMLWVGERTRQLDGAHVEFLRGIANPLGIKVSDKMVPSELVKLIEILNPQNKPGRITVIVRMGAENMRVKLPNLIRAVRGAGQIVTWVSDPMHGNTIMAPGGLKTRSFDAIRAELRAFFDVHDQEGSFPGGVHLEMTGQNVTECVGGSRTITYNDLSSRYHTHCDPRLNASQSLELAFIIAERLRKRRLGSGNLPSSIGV
# test: biochemical
# Assay type: biochemical
# conditionNotes: up to 1 mM Tyr, Trp (FIG. 2C); shikimate, arogenate, prephenate at 1 mM (FIG. 21A)
endpointName: inhibition of DHS2^A4

>>> reported("O=C(O)C(=O)CC1(C(=O)O)C=CC(O)C=C1 (stereo not shown) [prephenate]")
"still inhibited"
>>> reported("N[C@@H](CC1(C(=O)O)C=CC(O)C=C1)C(=O)O (stereo partly shown) [arogenate]")
"still inhibited"
>>> reported("O=C(O)C1=C[C@@H](O)[C@@H](O)[C@H](O)C1 [shikimate]")
"still inhibited"
>>> reported("C=C(O[C@@H]1C=C(C(=O)O)C=C[C@H]1O)C(=O)O [Chorismate]")
"still inhibited"

Values compiled from patent US20250043299A1.
